# testMethodNotes: Single dose escalation and multiple dosing pharmacokinetic study of LipoCol Forte
# experimentalSetup: human, plasma, oral, 1 LipoCol Forte capsule, Cmax, healthy subjects, fed, single dose one LipoCol Forte capsule; mean ± SD, n = 14
# Cmax per record follows
experimentalEndpoint: Cmax (ng/mL)

CC[C@H](C)C(=O)O[C@H]1C[C@@H](C)C=C2C=C[C@H](C)[C@H](CC[C@@H]3C[C@@H](O)CC(=O)O3)[C@H]21 [Pure lovastatin, lovastatin, reference compound] : 1.61
CC[C@H](C)C(=O)O[C@H]1C[C@@H](C)C=C2C=C[C@H](C)[C@H](CC[C@@H](O)C[C@@H](O)CC(=O)O)[C@H]21 : 7.78
